biological target: GluA2 (Rattus norvegicus, UniProt P19491); construct: expressed in transfected cells; host or cells: HEK293T; assay: Whole-cell patch-clamp recording of homomeric GluA2 AMPAR expressed in HEK293T cells; format: cell-based; conditions: 500 ms 10 mM glutamate + 16 µM compound, n=8
t des (weighted desensitization time constant) values by entry
Could you give me the number in ms? Just the number is fine.

input_smiles=COc1cc([N+](=O)[O-])ccc1C1=NNC(=O)Cc2cc3c(cc21)OCO3 tested_target="GluA2 (Rattus norvegicus, UniProt P19491)" recorded_number=2.5
input_smiles=O=C1Cc2cc3c(cc2C(c2ccc([N+](=O)[O-])cc2F)=NN1)OCO3 tested_target="GluA2 (Rattus norvegicus, UniProt P19491)" recorded_number=2.3
input_smiles=Nc1ccc(C2=NNC(=O)Cc3cc4c(cc32)OCO4)c(F)c1 tested_target="GluA2 (Rattus norvegicus, UniProt P19491)" recorded_number=0.6

Now look at this entry.
Please indicate t des (weighted desensitization time constant) recorded for COc1cc(N)ccc1C1=NNC(=O)Cc2cc3c(cc21)OCO3
1.6

###

target: GluA2/3 (Rattus norvegicus, UniProt P19491+P19492); construct: expressed in transfected cells; host or cells: HEK293T; test: Whole-cell patch-clamp recording of heteromeric GluA2/3 AMPAR expressed in HEK293T cells; type: cell-based; settings: 10 mM glutamate, 16 µM compound, n=8
Sequence (P19491 22-883 isoform P19491-2 limits assumed): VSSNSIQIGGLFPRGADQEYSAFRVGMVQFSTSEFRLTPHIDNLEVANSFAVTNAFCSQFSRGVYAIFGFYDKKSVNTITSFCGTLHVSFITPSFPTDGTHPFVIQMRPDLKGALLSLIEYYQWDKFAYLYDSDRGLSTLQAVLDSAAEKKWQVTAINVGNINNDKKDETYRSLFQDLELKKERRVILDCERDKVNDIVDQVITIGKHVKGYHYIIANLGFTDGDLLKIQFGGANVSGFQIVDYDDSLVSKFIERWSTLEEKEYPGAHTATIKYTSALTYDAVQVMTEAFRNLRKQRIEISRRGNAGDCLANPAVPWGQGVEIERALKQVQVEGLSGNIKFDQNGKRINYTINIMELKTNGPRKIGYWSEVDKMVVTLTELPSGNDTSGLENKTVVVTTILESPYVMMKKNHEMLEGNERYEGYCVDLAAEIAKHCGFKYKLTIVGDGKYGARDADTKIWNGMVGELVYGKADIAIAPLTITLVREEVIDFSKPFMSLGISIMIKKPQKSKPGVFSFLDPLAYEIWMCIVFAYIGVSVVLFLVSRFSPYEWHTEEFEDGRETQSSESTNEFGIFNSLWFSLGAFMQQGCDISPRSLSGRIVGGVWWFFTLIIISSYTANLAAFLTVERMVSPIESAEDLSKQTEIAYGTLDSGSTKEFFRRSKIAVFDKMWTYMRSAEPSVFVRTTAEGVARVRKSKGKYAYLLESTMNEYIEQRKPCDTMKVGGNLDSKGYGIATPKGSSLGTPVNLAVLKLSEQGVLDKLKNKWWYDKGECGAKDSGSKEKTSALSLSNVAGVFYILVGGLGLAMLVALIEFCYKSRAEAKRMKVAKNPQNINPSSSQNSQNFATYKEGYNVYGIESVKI
Sequence (P19492 23-888 isoform P19492-2 limits assumed): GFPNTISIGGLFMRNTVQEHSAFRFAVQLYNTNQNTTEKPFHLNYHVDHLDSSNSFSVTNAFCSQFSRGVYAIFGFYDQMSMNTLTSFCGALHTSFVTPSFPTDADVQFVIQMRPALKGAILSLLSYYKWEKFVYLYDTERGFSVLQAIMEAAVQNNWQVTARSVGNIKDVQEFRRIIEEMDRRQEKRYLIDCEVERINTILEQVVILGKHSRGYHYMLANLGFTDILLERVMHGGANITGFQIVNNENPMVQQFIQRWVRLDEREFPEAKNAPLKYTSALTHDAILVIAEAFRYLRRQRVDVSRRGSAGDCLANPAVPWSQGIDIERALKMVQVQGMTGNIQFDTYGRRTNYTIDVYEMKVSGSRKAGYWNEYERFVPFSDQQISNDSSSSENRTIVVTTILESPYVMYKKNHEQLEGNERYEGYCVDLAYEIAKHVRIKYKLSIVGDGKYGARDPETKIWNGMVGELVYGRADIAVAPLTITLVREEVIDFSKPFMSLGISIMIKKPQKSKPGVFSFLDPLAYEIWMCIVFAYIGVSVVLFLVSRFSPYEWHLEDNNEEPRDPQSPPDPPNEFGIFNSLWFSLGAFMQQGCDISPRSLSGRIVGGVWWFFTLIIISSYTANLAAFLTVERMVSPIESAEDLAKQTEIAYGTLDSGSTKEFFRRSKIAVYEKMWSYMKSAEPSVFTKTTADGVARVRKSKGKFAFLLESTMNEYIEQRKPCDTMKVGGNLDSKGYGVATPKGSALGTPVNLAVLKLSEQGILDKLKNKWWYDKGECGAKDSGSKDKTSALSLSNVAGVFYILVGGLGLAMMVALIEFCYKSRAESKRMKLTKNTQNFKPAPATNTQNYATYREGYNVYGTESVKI
A/AI (current amplitude ratio without/with compound) values by entry
A bare number is all that is needed in reply.

# count of solved cases: 2
input_smiles=COc1cc(N)ccc1C1=NNC(=O)Cc2cc3c(cc21)OCO3 tested_target="GluA2/3 (Rattus norvegicus, UniProt P19491+P19492)" recorded_number=10.28
input_smiles=COc1cc([N+](=O)[O-])ccc1C1=NNC(=O)Cc2cc3c(cc21)OCO3 tested_target="GluA2/3 (Rattus norvegicus, UniProt P19491+P19492)" recorded_number=3.56

Please indicate A/AI (current amplitude ratio without/with compound) recorded for O=C1Cc2cc3c(cc2C(c2ccc([N+](=O)[O-])cc2F)=NN1)OCO3
4.08

Please indicate A/AI (current amplitude ratio without/with compound) recorded for Nc1ccc(C2=NNC(=O)Cc3cc4c(cc32)OCO4)c(F)c1
12.09

###

target: GluA1/2 (Rattus norvegicus, UniProt P19490+P19491); construct: expressed in transfected cells; host or cells: HEK293T; experiment: Whole-cell patch-clamp recording of heteromeric GluA1/2 AMPAR expressed in HEK293T cells; format: cell-based; conditions: 10 mM glutamate + 16 µM compound, -60 mV, pH 7.4, 22 °C, mean±SEM, n=8
Sequence (P19490 19-907 isoform P19490-2 limits assumed): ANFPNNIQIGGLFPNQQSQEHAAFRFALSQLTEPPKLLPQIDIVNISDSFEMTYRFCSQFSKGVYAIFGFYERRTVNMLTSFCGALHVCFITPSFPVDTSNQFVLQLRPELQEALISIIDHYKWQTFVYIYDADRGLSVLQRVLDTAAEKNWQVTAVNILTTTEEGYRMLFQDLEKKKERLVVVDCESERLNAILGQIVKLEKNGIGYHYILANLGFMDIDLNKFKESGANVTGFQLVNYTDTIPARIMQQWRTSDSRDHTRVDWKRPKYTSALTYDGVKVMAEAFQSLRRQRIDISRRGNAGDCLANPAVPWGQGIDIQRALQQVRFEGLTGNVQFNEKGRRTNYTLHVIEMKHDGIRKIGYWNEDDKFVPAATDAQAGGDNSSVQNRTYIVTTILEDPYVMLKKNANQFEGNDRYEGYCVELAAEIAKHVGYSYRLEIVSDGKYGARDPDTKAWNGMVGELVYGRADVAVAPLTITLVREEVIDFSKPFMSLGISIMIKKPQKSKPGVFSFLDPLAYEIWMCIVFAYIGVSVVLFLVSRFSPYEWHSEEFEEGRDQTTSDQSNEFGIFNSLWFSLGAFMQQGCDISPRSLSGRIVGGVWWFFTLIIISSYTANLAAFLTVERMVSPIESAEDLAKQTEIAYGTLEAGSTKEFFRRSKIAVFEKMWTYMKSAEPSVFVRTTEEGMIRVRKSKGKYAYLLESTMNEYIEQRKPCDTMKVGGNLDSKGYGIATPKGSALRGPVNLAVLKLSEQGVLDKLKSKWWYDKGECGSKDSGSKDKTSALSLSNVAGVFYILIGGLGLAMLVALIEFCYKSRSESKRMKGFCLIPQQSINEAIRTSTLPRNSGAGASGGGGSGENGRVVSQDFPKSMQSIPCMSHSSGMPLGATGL
Sequence (P19491 22-883 isoform P19491-2 limits assumed): as the sequence (P19491 22-883 isoform P19491-2 limits assumed) above
ATTRIBUTE_MEASURED: Amplitude with compound (pA)
Could you give me the number in pA? Just the number is fine.

input_smiles=Nc1ccc(C2=NNC(=O)Cc3cc4c(cc32)OCO4)c(F)c1 attribute_measured="Amplitude with compound" recorded_number=51
input_smiles=O=C1Cc2cc3c(cc2C(c2ccc([N+](=O)[O-])cc2F)=NN1)OCO3 attribute_measured="Amplitude with compound" recorded_number=144
input_smiles=COc1cc([N+](=O)[O-])ccc1C1=NNC(=O)Cc2cc3c(cc21)OCO3 attribute_measured="Amplitude with compound" recorded_number=170

Now look at this entry.
Please indicate Amplitude with compound recorded for COc1cc(N)ccc1C1=NNC(=O)Cc2cc3c(cc21)OCO3
53

###

target: GluA2/3 (Rattus norvegicus, UniProt P19491+P19492); construct: expressed in transfected cells; host or cells: HEK293T; assay: Whole-cell patch-clamp recording of heteromeric GluA2/3 AMPAR expressed in HEK293T cells; format: cell-based; settings: log of IC50, read-out: Log IC50 (converted)
IC50 values by entry

# count of solved cases: 3
input_smiles=Nc1ccc(C2=NNC(=O)Cc3cc4c(cc32)OCO4)c(F)c1 result="3.09 µM"
input_smiles=O=C1Cc2cc3c(cc2C(c2ccc([N+](=O)[O-])cc2F)=NN1)OCO3 result="5.75 µM"
input_smiles=COc1cc([N+](=O)[O-])ccc1C1=NNC(=O)Cc2cc3c(cc21)OCO3 result="6.76 µM"

Now look at this entry.
Please indicate IC50 recorded for COc1cc(N)ccc1C1=NNC(=O)Cc2cc3c(cc21)OCO3
3.47 µM

###

target: GluA2/3 (Rattus norvegicus, UniProt P19491+P19492); construct: expressed in transfected cells; host or cells: HEK293T; test: Whole-cell patch-clamp recording of heteromeric GluA2/3 AMPAR expressed in HEK293T cells; assay type: cell-based; settings: 1 ms 10 mM glutamate + 16 µM compound, n=8
ATTRIBUTE_MEASURED: t deact (weighted deactivation time constant) (ms)
Could you give me the number in ms? Just the number is fine.

# count of solved cases: 3
input_smiles=COc1cc([N+](=O)[O-])ccc1C1=NNC(=O)Cc2cc3c(cc21)OCO3 tested_target="GluA2/3 (Rattus norvegicus, UniProt P19491+P19492)" recorded_number=2.8
input_smiles=O=C1Cc2cc3c(cc2C(c2ccc([N+](=O)[O-])cc2F)=NN1)OCO3 tested_target="GluA2/3 (Rattus norvegicus, UniProt P19491+P19492)" recorded_number=2.9
input_smiles=Nc1ccc(C2=NNC(=O)Cc3cc4c(cc32)OCO4)c(F)c1 tested_target="GluA2/3 (Rattus norvegicus, UniProt P19491+P19492)" recorded_number=8.1

Now look at this entry.
Please indicate t deact (weighted deactivation time constant) recorded for COc1cc(N)ccc1C1=NNC(=O)Cc2cc3c(cc21)OCO3
4.8

###

molecular target: GluA1/2 (Rattus norvegicus, UniProt P19490+P19491); construct: expressed in transfected cells; host or cells: HEK293T; assay: Whole-cell patch-clamp recording of heteromeric GluA1/2 AMPAR expressed in HEK293T cells; format: cell-based; settings: 500 ms 10 mM glutamate + 16 µM compound, n=8
ATTRIBUTE_MEASURED: t des (weighted desensitization time constant) (ms)
Could you give me the number in ms? Just the number is fine.

# count of solved cases: 3
compound="O=C1Cc2cc3c(cc2C(c2ccc([N+](=O)[O-])cc2F)=NN1)OCO3 [2,3-BDZ-3]" recorded_number=4.9
compound="COc1cc(N)ccc1C1=NNC(=O)Cc2cc3c(cc21)OCO3 [2,3-BDZ-2]" recorded_number=3.8
compound="COc1cc([N+](=O)[O-])ccc1C1=NNC(=O)Cc2cc3c(cc21)OCO3 [2,3-BDZ-4]" recorded_number=5.0

Now look at this entry.
# assay system GluA1/2 (Rattus norvegicus, UniProt P19490+P19491): give t des (weighted desensitization time constant) of Nc1ccc(C2=NNC(=O)Cc3cc4c(cc32)OCO4)c(F)c1 [2,3-BDZ-1]
2.7

###

target: GluA1/2 (Rattus norvegicus, UniProt P19490+P19491); construct: expressed in transfected cells; host or cells: HEK293T; test: Whole-cell patch-clamp recording of heteromeric GluA1/2 AMPAR expressed in HEK293T cells; format: cell-based; conditions: normalized peak current, -60 mV, pH 7.4, 22 °C, read-out: IC50
IC50 values by entry

input_smiles=O=C1Cc2cc3c(cc2C(c2ccc([N+](=O)[O-])cc2F)=NN1)OCO3 result="5.79 µM"
input_smiles=Nc1ccc(C2=NNC(=O)Cc3cc4c(cc32)OCO4)c(F)c1 result="3.05 µM"
input_smiles=COc1cc([N+](=O)[O-])ccc1C1=NNC(=O)Cc2cc3c(cc21)OCO3 result="6.69 µM"

Please indicate IC50 recorded for COc1cc(N)ccc1C1=NNC(=O)Cc2cc3c(cc21)OCO3
3.43 µM

###

target: GluA1 (Rattus norvegicus, UniProt P19490); construct: expressed in transfected cells; host or cells: HEK293T; test: Whole-cell patch-clamp recording of homomeric GluA1 AMPAR expressed in HEK293T cells; format: cell-based; conditions: 1 ms 10 mM glutamate + 16 µM compound, n=8
t deact (weighted deactivation time constant) values by entry
Could you give me the number in ms? Just the number is fine.

input_smiles=COc1cc([N+](=O)[O-])ccc1C1=NNC(=O)Cc2cc3c(cc21)OCO3 recorded_number=2.3
input_smiles=Nc1ccc(C2=NNC(=O)Cc3cc4c(cc32)OCO4)c(F)c1 recorded_number=6.3
input_smiles=O=C1Cc2cc3c(cc2C(c2ccc([N+](=O)[O-])cc2F)=NN1)OCO3 recorded_number=2.4

Now look at this entry.
Please indicate t deact (weighted deactivation time constant) recorded for COc1cc(N)ccc1C1=NNC(=O)Cc2cc3c(cc21)OCO3
3.6

###

biological target: GluA2 (Rattus norvegicus, UniProt P19491); construct: expressed in transfected cells; host or cells: HEK293T; assay: Whole-cell patch-clamp recording of homomeric GluA2 AMPAR expressed in HEK293T cells; type: cell-based; conditions: 1 ms 10 mM glutamate + 16 µM compound, n=8
ATTRIBUTE_MEASURED: t deact (weighted deactivation time constant) (ms)
Could you give me the number in ms? Just the number is fine.

Please indicate t deact (weighted deactivation time constant) recorded for COc1cc(N)ccc1C1=NNC(=O)Cc2cc3c(cc21)OCO3
5.1

Please indicate t deact (weighted deactivation time constant) recorded for Nc1ccc(C2=NNC(=O)Cc3cc4c(cc32)OCO4)c(F)c1
8.7

Please indicate t deact (weighted deactivation time constant) recorded for COc1cc([N+](=O)[O-])ccc1C1=NNC(=O)Cc2cc3c(cc21)OCO3
2.7

Please indicate t deact (weighted deactivation time constant) recorded for O=C1Cc2cc3c(cc2C(c2ccc([N+](=O)[O-])cc2F)=NN1)OCO3
2.8
